- ASSAY: protein stability index of a GFP-peptide fusion (GPS, HEK-293T) (PSI 1-6); higher = more stable;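 further: 24-mer peptide tiles fused after GFP, lentivirally expressed, FACS-sorted into six equal bins by GFP/DsRed ratio, decoded by Illumina sequencing, PSI is the read-weighted mean bin number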
- EXPERIMENTAL SETUP: treatment: MLN4924 1 uM, 8 h; c terminus: a fixed tail appended
PROPERTY NAME: protein stability index
Could you respond with only the numeric value?

A selection of reference data follows.
# PRIMARY SEQUENCE, protein stability index
data = [
    ("TRIMIGLTLVFFVQITGQPNILFY [SLC2A12]", 3.27),
    ("LAWRIVNDTYRTDLCLLYPPFMIA [CCNC]", 3.34),
    ("SAHRALYRRHVLGIVLQGPALCFA [TMEM175]", 2.58),
    ("DFGFAILGFAYAKEDKIMLDDRKN [MIA2]", 2.16),
    ("CTSSWDKNLKIWNVHTGEFRNCGA [WDR88]", 2.56),
    ("DELALSLGYAASLEASVQDDAGTS [C2CD2L]", 5.22),
]

Alright, here's another sequence for you.
Can you share its protein stability index? I mean this sequence: DEVPGSQGSQASQAPPVPGPPPGA [NR2F2]
5.6

Where these numbers come from: the supplement of paper PMC10567573
